SYSTEM UNDER TEST: T1, HvRPA3-NTD (OB-fold) (Haloferax volcanii DS2 (wild-type), UniProt D4GZS1 1-163)
T1 sequence: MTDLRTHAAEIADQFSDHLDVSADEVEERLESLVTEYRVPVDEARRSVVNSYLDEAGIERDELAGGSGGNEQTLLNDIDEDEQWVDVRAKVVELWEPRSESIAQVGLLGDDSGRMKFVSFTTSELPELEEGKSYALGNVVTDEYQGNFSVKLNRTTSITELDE
ASSAY OVERVIEW: fluorescence anisotropy; 1 M KCl; two-site fit, high-affinity site; dimer concentration; FA: 50 mM HEPES pH 7.0, 10% glycerol, 0.03% BSA, 20 nM Cy5-oligo, 0.2, 1 or 3 M KCl, room temperature 10 min; SEC: 50 mM HEPES pH 7.0, 0.2, 1 or 3 M KCl; EMSA:
CONDITION DESCRIPTION: protein: recombinant; tags: N-terminal 6xHis; label: 5' Cy5; single strand
pKd: −log10 of the molar value.
MEASURED ATTRIBUTE: pKd

1. GCGTGTGTGGTGGTGTGC (ssDNA) [Cy5-18mer ssDNA (FA)]
8.39
